- System: TAOK1;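 note: KINOMEscan kinase panel screen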
- conditionParameters: concentration: 1 μM, replicates: in singlicate; n = 1

compound	%Inh
c1ccc(-c2n[nH]cc2Nc2ccnc3ccccc23)nc1	66%
CN(C)Cc1ccc(-c2ccc3c(Nc4ccc(Oc5ccccn5)cc4)ccnc3c2)o1	0%
CC(C)(C)c1ccc2nccc(Nc3cccc(O)c3)c2c1	100%
Nc1ncnc2c1nc(-c1ccccc1)n2-c1ccccc1	38%
Cc1ccc(C)c(NC(=O)NC2CCN(c3ccnc(Nc4ccc(F)cc4)n3)C2)c1 (stereo not drawn)	0%
Cl.Cl.NCC(NCc1ccc(-c2ccnc3[nH]ccc23)s1)c1ccccc1 (stereo not drawn)	26%
Oc1cc(Nc2ccnc3cc(I)ccc23)ccc1F	0%
Cl.NC(=O)c1cccc(Nc2nccc(Nc3ccc(Oc4c(Cl)cccc4Cl)c(Cl)c3)n2)c1	9%
FC(F)(F)c1ccc(/C=C/c2cncnc2Nc2ccc3[nH]c(Cc4ccccc4)nc3c2)cc1	0%
